Target: alpha2B receptor (Homo sapiens)
Construct: expressed in transfected cells; host or cells: NIH-3T3
Sequence (P18089 whole entry): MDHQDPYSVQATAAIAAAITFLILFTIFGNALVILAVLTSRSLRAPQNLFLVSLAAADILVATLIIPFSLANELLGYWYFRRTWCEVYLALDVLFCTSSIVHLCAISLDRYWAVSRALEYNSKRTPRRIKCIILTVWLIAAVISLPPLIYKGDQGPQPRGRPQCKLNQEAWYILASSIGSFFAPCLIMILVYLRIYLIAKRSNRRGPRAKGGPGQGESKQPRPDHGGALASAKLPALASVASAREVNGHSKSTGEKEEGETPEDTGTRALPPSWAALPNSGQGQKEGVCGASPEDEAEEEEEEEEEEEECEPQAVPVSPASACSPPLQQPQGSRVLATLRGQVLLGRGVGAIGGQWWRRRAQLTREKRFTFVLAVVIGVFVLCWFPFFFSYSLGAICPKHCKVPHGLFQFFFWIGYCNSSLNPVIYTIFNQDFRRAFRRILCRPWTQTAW
Assay: RSAT assay, alpha 2B
Type: cell-based
pEC50: −log10 of the molar value.

# CHEMICAL_STRUCTURE, pEC50
records = [
    ("Cc1cccc(CNC2=NCCO2)c1C", 8.70),
    ("Cc1c(Cl)cccc1CNC1=NCCS1", 7.40),
    ("Brc1cccc(CNC2=NCCO2)c1", 7.92),
    ("Fc1ccc(Br)cc1CNC1=NCCO1", 7.74),
    ("FC(F)(F)c1ccccc1CNC1=NCCO1", 7.51),
    ("Fc1ccc(Br)c(CNC2=NCCS2)c1", 7.14),
    ("Clc1cccc(CNC2=NCCS2)c1", 7.38),
    ("Fc1c(Br)cccc1CNC1=NCCS1", 7.47),
    ("Fc1c(Cl)cccc1CNC1=NCCS1", 6.97),
    ("Brc1ccccc1CNC1=NCCO1", 8.30),
    ("Fc1ccc(Cl)c(F)c1CNC1=NCCO1", 7.24),
    ("Fc1c(I)cccc1CNC1=NCCS1", 8.22),
    ("Clc1c(Br)cccc1CNC1=NCCS1", 7.74),
    ("Fc1ccc(Br)c(CNC2=NCCO2)c1", 8.40),
    ("COc1ccc(Cl)cc1CNC1=NCCS1", 7.11),
    ("Clc1cccc(CNC2=NCCS2)c1Br", 7.40),
    ("Clc1ccccc1CNC1=NCCS1", 7.30),
    ("FC(F)(F)c1cccc(CNC2=NCCO2)c1Cl", 8.30),
    ("Fc1c(CNC2=NCCS2)cccc1C(F)(F)F", 6.74),
]
